Reported Percent Inhibition values for a set of compounds
- System: Panc 03.27
- experiment summary: Cell panel screen (CellTiter-Glo)
- Format: cell-based, human
- test settings: Panc 03.27 (Pancreas), 20 micromolar, 72 hrs

| compound | Percent Inhibition |
| --- | --- |
| CC(C)=CCc1c(O)cc2oc3ccc(O)cc3c(=O)c2c1O | 43% |
| CC1(C)C=Cc2c(cc(O)c3c(=O)c4cc5c(c(O)c4oc23)OC(C)(C)C=C5)O1 | 20% |
| CC(C)=CCc1c(O)cc2oc3c(c(=O)c2c1O)C(CC=C(C)C)(CC=C(C)C)C(=O)C(O)=C3 | 48% |
| O=c1c2ccc(O)c(O)c2oc2cccc(O)c12 | -5% |
| CC(C)=CCC[C@@]1(C)C=Cc2c(O)c3c(c(CC=C(C)C)c2O1)O[C@]12C(=C[C@@H]4C[C@H]1C(C)(C)O[C@@]2(C/C=C(/C)C(=O)O)C4=O)C3=O | 99% |
| O=C(c1ccc(O)c(O)c1)c1c(O)cc(O)cc1O | -14% |
| O=c1c2cc(O)c(O)cc2oc2cc(O)cc(O)c12 | 20% |
| CCOC1C2C(=O)c3c(O)c4c(c(CC=C(C)C)c3O[C@@]23[C@H]2C[C@@H]1C(=O)[C@]3(C/C=C(/C)C(=O)O)OC2(C)C)OC(C)(CCC=C(C)C)C=C4 (some centres unmarked) | 99% |
| CC(C)=CCC/C(C)=C/Cc1c(O)c(CC=C(C)C)c2c(c1O)C(=O)C1=C[C@@H]3C[C@H]4C(C)(C)O[C@@](C/C=C(/C)C(=O)O)(C3=O)[C@@]14O2 | 99% |
| COc1cc(O)c2c(=O)c3cc(CC=C(C)C)c(O)c(O)c3oc2c1CC=C(C)C | 86% |
| COc1c(O)c(O)c2c(=O)c3c(CC=C(C)C)c(CC=C(C)C)c(O)c(O)c3oc2c1CC=C(C)C | -24% |
| CC(C)=CCCC1(C)C=Cc2c(O)c3c(c(CC=C(C)C)c2O1)OC12C(=CC4CC1C(C)(C)OC2(CC=C(C)C(=O)O)C4=O)C3=O (mixture of isomers) [GB14] | 97% |
| COC(=O)C1OC(Oc2cc(O)c3c(=O)cc(-c4ccc(O)cc4)oc3c2)C(O)C(O)C1O (centres unmarked) | -4% |
| O=C1c2c(O)cc(O)cc2OC(c2ccc(O)cc2)C1c1c(O)cc(O)c2c(=O)cc(-c3ccc(O)c(O)c3)oc12 (centres unmarked) | -16% |
| O=c1c2cc(O)ccc2oc2cccc(O)c12 [Gof3] | 7% |
| COc1c(CC=C(C)C)cc2c(=O)c3c(O)cc(O)cc3oc2c1O | 47% |
| CC(C)=CCc1c(O)c(O)cc2oc3cc(O)cc(O)c3c(=O)c12 | -1% |
| CC(C)=CCc1c(O)cc2oc3cc(O)c(O)c(CCC(C)(C)O)c3c(=O)c2c1O | 86% |
| CC(C)=CCc1c2c(c(O)c3c1OC14C(=CC5CC1C(C)(C)OC4(CC=C(C)C(=O)O)C5=O)C3=O)C=CC(C)(C)O2 (centres unmarked) | 97% |
| CC(C)=CCc1c(O)cc(O)c2c1O[C@]13C(=C[C@@H]4C[C@H]1C(C)(C)O[C@@]3(CC=C(C)C)C4=O)C2=O | 99% |
| CC(C)=CCc1c2c(c3oc4c(O)c(O)ccc4c(=O)c3c1O)C=CC(C)(C)O2 | 21% |
| CC(C)=CCc1c2c(c(O)c3c1O[C@]14C(=C[C@@H]5C[C@H]1C(C)(C)O[C@@]4(C/C=C(\C)CO)C5=O)C3=O)C=CC(C)(C)O2 | 99% |
| O=C1c2c(O)cc(O)cc2OC(c2ccc(O)c(O)c2)C1O (centres unmarked) | 9% |
| CC(C)=CCCC1(C)C=Cc2c(O)c3c(c(CC=C(C)C)c2O1)OC12C(=CC4CC1C(C)(C)OC2(CC=C(C)C(=O)O)C4=O)C3=O (mixture of isomers) [GB8] | 99% |
| CC1(C)C=Cc2cc3c(=O)c4c(O)cc(O)cc4oc3c(O)c2O1 | 39% |
| COC(=O)C1OC(Oc2cc(O)c3c(c2)OC(c2ccc(O)c(O)c2)CC3=O)C(O)C(O)C1O (centres unmarked) | 3% |
| O=c1c2cc(O)ccc2oc2cccc(O)c12 [gl-20] | 52% |
| COc1c(CC=C(C)C)cc2c(=O)c3c(O)cc(O)cc3oc2c1OC | 45% |
| CC1(C)C=Cc2c(cc(O)c3c(=O)c4ccc(O)c(O)c4oc23)O1 | 96% |
| COc1cc(O)c2c(=O)c3cc4c(c(O)c3oc2c1CC=C(C)C)OC(C)(C)C=C4 | 24% |
| C=C(C)C(O)Cc1c(O)cc2oc3cc(O)c(O)c(CC=C(C)C)c3c(=O)c2c1O (centres unmarked) | 44% |
| COc1c(CC=C(C)C)c(O)c2c(=O)c3ccc(O)c(O)c3oc2c1CC=C(C)C | 92% |
